I'd be grateful if you could share measured residual activity for these entries.
- target.of.assay: BRSK2 (human) (UniProt Q8IWQ3)
- Sequence (Q8IWQ3 whole entry, looked up): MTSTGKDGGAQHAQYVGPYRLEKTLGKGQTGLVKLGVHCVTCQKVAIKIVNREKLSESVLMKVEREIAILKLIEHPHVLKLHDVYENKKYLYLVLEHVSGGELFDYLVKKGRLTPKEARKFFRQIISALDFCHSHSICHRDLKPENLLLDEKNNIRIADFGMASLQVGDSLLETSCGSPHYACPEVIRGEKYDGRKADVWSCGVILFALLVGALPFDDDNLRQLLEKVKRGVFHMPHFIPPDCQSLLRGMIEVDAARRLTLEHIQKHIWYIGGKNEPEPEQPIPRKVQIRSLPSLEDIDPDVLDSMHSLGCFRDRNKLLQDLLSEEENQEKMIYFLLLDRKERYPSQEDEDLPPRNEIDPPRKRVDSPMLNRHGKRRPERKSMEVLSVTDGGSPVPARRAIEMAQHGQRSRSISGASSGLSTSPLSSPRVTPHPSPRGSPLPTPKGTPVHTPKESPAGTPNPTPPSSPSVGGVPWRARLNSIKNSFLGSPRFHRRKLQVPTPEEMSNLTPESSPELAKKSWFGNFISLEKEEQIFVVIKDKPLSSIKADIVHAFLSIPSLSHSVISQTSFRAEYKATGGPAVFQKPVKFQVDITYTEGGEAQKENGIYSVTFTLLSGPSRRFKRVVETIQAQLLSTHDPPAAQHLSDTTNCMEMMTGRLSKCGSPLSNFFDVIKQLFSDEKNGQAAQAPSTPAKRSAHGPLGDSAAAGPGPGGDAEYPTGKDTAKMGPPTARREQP
- method.notes: radiometric filter-binding kinase assay, Kinase HotSpot
- stated.conditions: compound 0.5 µM; ATP 10 µM
Numbers only, in %.

Guide cases for residual activity, answers given:
>>> number("CC(C)[C@H](CO)Nc1nc(Nc2cc(N)cc(Cl)c2)c2ncn(C(C)C)c2n1")
88.2
>>> number("O=C1NC(=O)/C(=C\\c2ccc3nccnc3c2)S1")
90.9
>>> number("Cn1sc(=O)n(Cc2ccccc2)c1=O")
99.4
>>> number("Nc1nnc2[nH]c3ccccc3nc1-2")
96.5

Please find the next molecule below.
Could you share which residual activity value was measured for "O=C1NC(=O)C(c2c[nH]c3ccccc23)=C1c1c[nH]c2ccccc12" ?
86
